Source: ChEMBL document CHEMBL1201862

System: SF-268
Procedure Summary: NCI tumour cell line growth inhibition, 48 h
Calls of active or inactive are those of the source. No stated cut-off is given here; in the data, active = GI50 up to about 1.1 µM and inactive = higher.
Outcome codes: label 1 (active), label 0 (inactive)

Compound: O=C(O)C1C2C=CC(O2)C1C(=O)NCc1cccnc1 (configuration not stated)
Answer Label: label 0
--
Compound: COC(=O)C12C3C4C5C3(C#N)C1C5(C(=O)OC)C42C(=O)N(C(C)C)C(C)C (configuration not stated)
Answer Label: label 0
--
Compound: Nc1ncnc2c1ncn2C1CC(OCc2ccccc2[N+](=O)[O-])C(CO)O1 (configuration not stated)
Answer Label: label 0
--
Compound: CCN(CC)CCNc1ccc2nnn3c4ccccc4c(=O)c1c23
Answer Label: label 0
--
Compound: CC[C@@]1(O)C(=O)OCc2c1cc1n(c2=O)Cc2c-1nc1ccccc1c2/C=N/c1ccccc1N[C@@H]1c2cc3c(cc2[C@@H](c2cc(OC)c(O)c(OC)c2)[C@H]2C(=O)OC[C@@H]21)OCO3
Answer Label: label 1
--
Compound: COc1ccc(CNC2=N/C(=C\c3ccccc3Cl)C(=O)N2C)cc1
Answer Label: label 0
--
Compound: CC1(C)COCN1COC1CCCCC1
Answer Label: label 0
--
Compound: COc1ccc2c(c1OC)C(=O)N/C2=C\c1c(CCN(C)C)cc2c(c1OC)OCO2
Answer Label: label 0
--
Compound: CC(C)=Cc1cc(C)c2c(O)cc(C)c3c2c1C(C)=C(O)C3=O
Answer Label: label 0
--
Compound: COc1cc2c(c(OC)c1)C1(CC(CC#N)C2)SCCS1 (configuration not stated)
Answer Label: label 0
--
Compound: CCOC(=O)C1=NN(c2ccc(C)cc2)C2=CC(C)=NN(C)C(=S)N21
Answer Label: label 0
--
Compound: CNC(=O)NCCCC(NC(C)=O)C(=O)NCc1ccccc1 (configuration not stated)
Answer Label: label 0
--
Compound: COc1cc(OC)c(-c2oc3ccccc3c(=O)c2O)c(OC)c1
Answer Label: label 0
--
Compound: COc1cc(C2c3cc4c(cc3[C@@H](Nc3ccc(Oc5ccccc5)cc3)C3COC(=O)[C@H]23)OCO4)cc(OC)c1O (some centres not stated)
Answer Label: label 0
--
Compound: Cn1c(N(CCO)CCO)cnc1[N+](=O)[O-]
Answer Label: label 0
--
Compound: CC(C)=CCC/C(=C\CC/C(=C\CCc1ccoc1)C(=O)O)C(=O)O
Answer Label: label 0
--
Compound: CN(O)C(=O)Cc1ccccc1
Answer Label: label 0
--
Compound: Oc1nc2ccccc2c2oc3ccccc3c12
Answer Label: label 0
--
Compound: OC1=CN=C(c2ccccc2)Oc2ccccc21
Answer Label: label 0
--
Compound: SC1CCCN(Cc2ccccc2)C1 (configuration not stated)
Answer Label: label 0
--
Compound: NS(=O)(=O)c1ccc(NC(=O)c2ccc3nc4ccccc4c(Nc4ccc(S(N)(=O)=O)cc4)c3c2)cc1
Answer Label: label 0
--
Compound: Cc1n[nH]c(=O)n1Nc1ccccc1
Answer Label: label 0

---

Tested on: PC-3
Procedure Summary: NCI tumour cell line growth inhibition, 48 h
The source made the active and inactive calls. Rule as the data show it: active = GI50 up to about 1.1 µM and inactive = higher.
Outcome codes: active, inactive

Compound: O=C(NCCCN(CCCCN(CCCNC(=O)C(F)(F)F)Cc1ccc2ccccc2c1)Cc1ccc2ccccc2c1)C(F)(F)F
Answer Label: inactive
//
Compound: CCOc1ccc(Nc2nc(N)nc(N)c2N=O)cc1
Answer Label: inactive
//
Compound: CC(c1ccccc1)N1CCN(C(C)c2ccccc2)CC1 (stereo not drawn)
Answer Label: inactive
//
Compound: CCOC(=O)c1cn2c(n1)sc1cc(C)c(C)cc12
Answer Label: inactive
//
Compound: OC(CCNCc1ccccc1)c1ccc2ccccc2c1 (stereo not drawn)
Answer Label: inactive
//
Compound: O=C(Cc1ccccc1CCO)NCCc1ccccc1
Answer Label: inactive
//
Compound: CC[C@@]1(OC(=O)CN(C)C)C(=O)OCc2c1cc1n(c2=O)Cc2cc3ccccc3nc2-1
Answer Label: active
//
Compound: COc1ccccc1Nc1nc2c([nH]1)c(=O)n(C)c(=O)n2C
Answer Label: inactive

---

System: NCI-H522
Procedure Summary: NCI tumour cell line growth inhibition, 48 h
The source made the active and inactive calls. No stated cut-off is given here; in the data, active = GI50 up to about 1.1 µM and inactive = higher.
Recorded GI50 for the following compounds

Compound: COc1cc(Oc2nc3ccccc3nc2C(=O)O)cc(OC)c1OC
GI50: > 100 µM (inactive)
--
Compound: CC(=O)Oc1ccc2cc(-c3ccccc3OC(C)=O)c(=O)oc2c1
GI50: 4.3 µM (inactive)
--
Compound: O=C(NCCO)c1c(O)c2ccccc2[nH]c1=O
GI50: > 100 µM (inactive)
--
Compound: CCOC(=O)c1c(SC(=O)C(C)(C)Oc2ccc(Cl)cc2)n(-c2ccccc2)c(=S)n(-c2ccccc2)c1=O
GI50: 39.8 µM (inactive)
--
Compound: O=C1C=CC(=O)C(N(CCO)CCO)=C1.O=C1C=CC2(O)OCCN(CCO)C2=C1
GI50: > 100 µM (inactive)
--
Compound: COC(=O)C(C)NP(=O)(N1CC1)N1CC1 (stereo not given)
GI50: > 100 µM (inactive)
--
Compound: C/C(=C\CNc1ncnc2c1ncn2C1CCCCO1)COP(=O)(O)O (stereo not given)
GI50: > 100 µM (inactive)
--
Compound: CCOC(=O)C1=NN(c2ccc(C)cc2)C2=CC(C)=NN(C)C(=S)N21
GI50: 12.2 µM (inactive)
--
Compound: O=c1[nH]c(=O)n(C2CC(O)C(CO)O2)cc1C#Cc1ccc(F)cc1 (stereo not given)
GI50: > 100 µM (inactive)
--
Compound: COc1c(O)cc(/C=C/c2cc(O)cc3c2[C@@]2(C(=O)O3)c3c(O)cc(O)cc3OC2c2cccc(O)c2)cc1O (stereo not given in full)
GI50: 34.8 µM (inactive)

---

Test system: XF498
Procedure Summary: NCI tumour cell line growth inhibition, 48 h
Calls of active or inactive are those of the source. Rule as the data show it: active = GI50 up to about 1.1 µM and inactive = higher.

Compound: O=C(Nc1ccc2[nH]c3c(-c4ccccc4)nccc3c2c1)c1ccccc1[N+](=O)[O-]
Study System: XF498
GI50: 3.59 µM (inactive)

Compound: CCCCOC1CC2(c3ccc(OC)cc3)C(=O)c3ccccc3N2O1 (stereo not given)
Study System: XF498
GI50: > 10 µM (inactive)

Compound: N/C(=N\O)N/N=C\c1ccc(O)c(O)c1O
Study System: XF498
GI50: > 100 µM (inactive)

Compound: CCOC(=O)CCn1ncc(Cl)c(Cl)c1=O
Study System: XF498
GI50: 20.5 µM (inactive)

Compound: Cc1ccc(C)c(NC(=O)CCC(=O)CC(=O)C(C)(C)C)c1
Study System: XF498
GI50: > 100 µM (inactive)

Compound: O=C(c1ccccn1)c1nc(-c2ccc(Cl)c(Cl)c2)nc2ccc(Cl)cc12
Study System: XF498
GI50: 20.8 µM (inactive)

Compound: Cc1cc(N(CCC#N)S(=O)(=O)c2ccccc2)ccc1/C=C1\N=C(c2ccc(Cl)cc2)OC1=O
Study System: XF498
GI50: > 100 µM (inactive)

Compound: COc1nc(/C=N/NC(N)=S)nc(OC)n1
Study System: XF498
GI50: > 100 µM (inactive)

Compound: COC(=O)CC(C(C(C)=O)C(=O)OCc1ccccc1)N1C(=O)OC(c2ccccc2)C1c1ccccc1 (stereo not given)
Study System: XF498
GI50: 67.1 µM (inactive)

Compound: Sc1nnc(-c2ccnc(-c3nnc(S)[nH]3)c2)[nH]1
Study System: XF498
GI50: > 79.1 µM (inactive)

Compound: CC(=O)NC(Cc1ccccc1)C(=S)N1CCCC1 (stereo not given)
Study System: XF498
GI50: > 100 µM (inactive)

Compound: COc1ccc(/C(Cl)=C(\CN(C)C)c2ccc(OC)c(OC)c2)cc1OC
Study System: XF498
GI50: 19.8 µM (inactive)

Compound: O=[N+]([O-])c1cccnc1S(=O)(=O)c1ccccc1
Study System: XF498
GI50: 13.1 µM (inactive)

Compound: ONc1ncnc2[nH]cnc12
Study System: XF498
GI50: > 100 µM (inactive)

Compound: COS(=O)c1cc(Cl)cc(Cl)c1O (stereo not given)
Study System: XF498
GI50: > 100 µM (inactive)

Compound: Nc1ncnc2c1ncn2C1CC(OCc2ccccc2[N+](=O)[O-])C(CO)O1 (stereo not given)
Study System: XF498
GI50: 42.2 µM (inactive)

Compound: COc1cc(/N=N\c2cccc(S(=O)(=O)O)c2)ccc1/N=N\c1ccc(/C=C/c2ccc(-n3on3-c3ccc(/C=C/c4ccc(/N=N/c5ccc(/N=N\c6cccc(S(=O)(=O)O)c6)cc5OC)cc4S(=O)(=O)O)c(S(=O)(=O)O)c3)cc2S(=O)(=O)O)c(S(=O)(=O)O)c1
Study System: XF498
GI50: > 83 µM (inactive)

Compound: O=[N+]([O-])c1ccc(Cl)cc1C1SCc2nc3ccccc3n21 (stereo not given)
Study System: XF498
GI50: 65.5 µM (inactive)

Compound: COC(=O)/C=C/C1C2C3(CCC(C)C12C)OCCS3 (stereo not given)
Study System: XF498
GI50: > 100 µM (inactive)

Compound: O=C1[C@@H]2C(c3ccccc3F)=NO[C@@H]2C(=O)N1c1ccc(Cc2ccc(N3C(=O)[C@H]4C(c5ccccc5F)=NO[C@H]4C3=O)cc2)cc1
Study System: XF498
GI50: > 87.3 µM (inactive)
